Entries and their z-score
Test: PSAC antagonists in infected red cells, primary screen, cell-based, P. falciparum Indochina, OD700, 1 h (AID 1154)
Conditions: P. falciparum Indochina infected RBC osmotic lysis, higher = more signal, called active from +8 up or from −8 down
assay metric: z-score

> print(dat)
                            compound.string  recorded.result
1  CCOC(=O)[C@H]1C/C=C/C[C@H](C(=O)OCC)C(=O)O[C@H]2[C@@H](OC)O[C@H](CO)[C@@H](OC(=O)Nc3ccc4c(c3)OCO4)[C@@H]2OC1=O             4.49
2  O=C(CS)NCCCCCCNC(=O)[C@H]1C[C@H]2C(=O)NCC(=O)N2[C@H]1c1ccc(O)cc1             2.33
3  COC(=O)[C@@]1(Cc2ccc(OC)cc2)[C@H]2c3cc(C(=O)N4CCCC4)n(Cc4ccccn4)c3C[C@H]2CN1C(=O)c1ccccc1             3.64

* * *

Assay: basal MM1S mitochondrial membrane potential changes, profiling panel, cell-based, JC-1 fluorescence, 24 h, 100 nL compound (AID 1170); also: test concentration not given here
Details: higher = more signal

molecule	z-score
CC(C)=CCCC(C)=CC(O)C1C=CC2C(=O)N(c3ccccc3)C(=O)C2N1Nc1ccccc1 (stereo unspecified)	-0.236
O=C1C2C=CC(C(O)c3ccc(B(O)O)cc3)N(Nc3ccccc3)C2C(=O)N1c1ccccc1 (stereo unspecified)	-0.613
CC(C)C(=C=CC[C@@H](O)c1ccccc1OCCO)C[C@@H](O)c1ccccn1	-0.0458
[N-]=[N+]=NCc1ccccc1C[C@]1(C(=O)O)N=C(c2ccc(OCCCO)cc2)O[C@H]1c1ccccc1CN=[N+]=[N-]	0.432
Cc1ccc(S[C@]2(C(=O)NCc3ccccc3)CC(=O)N(Cc3ccccc3)[C@@H]2c2ccc(CO)cc2)cc1	-0.172
CCC(CC)C(O)C1C=CC2C(=O)N(c3ccccc3)C(=O)C2N1Nc1ccc(C#N)cc1 (stereo unspecified)	-0.0284
CCOC(=O)C1=C[C@@H](C(C)C)N(S(=O)(=O)c2ccc(C)cc2)[C@H]1c1ccc(C(C)C)cc1	-0.776
COc1cc(CO)ccc1OC(C)=O	0.433
COCCOC(=O)N1C(=O)[C@@]2(c3cc(C#Cc4ccc(OC)cc4)ccc31)[C@H](C(=O)N1CCN(c3ncccn3)CC1)[C@H]1C(=O)O[C@H](c3ccccc3)[C@H](c3ccccc3)N1[C@@H]2c1ccc(O)cc1	0.193
CCCCCN1CC=CC23O[C@@H]4/C=C\CCCOC(=O)C4[C@H]2C(=O)N(CCCCCCO)[C@@H]3C1=O (stereo partly specified)	-1.09
COCC(=C=CC[C@@H](O)c1ccc(CO)o1)CCO	-1.08
CC(C)N1C(=O)C[C@@](C(=O)NCc2ccccc2)(c2ccc([N+](=O)[O-])cc2)[C@H]1c1ccc(CO)cc1	0.301
CS(=O)(=O)CCOC(=O)C1=CC(c2ccc(CO)cc2)=CC(C2CC2)N(Cc2cc3c(cc2Br)OCO3)C=C1C(=O)OCCS(C)(=O)=O (stereo unspecified)	-1.8
O=C1O[C@@H](c2ccccc2)[C@@H](c2ccccc2)N2[C@@H](c3ccc(O)cc3)[C@]3(C(=O)Nc4ccc(C#CC5=CCCCC5)cc43)[C@@H](C(=O)O)[C@H]12	1.04
CN(C)CCCCCCNC(=O)[C@H]1C[C@H]2C(=O)N[C@@H](CCCCN)C(=O)N2[C@H]1c1ccc(O)cc1	0.237
CC(C)(C)N1CC=CC23O[C@@H]4/C=C\CCCOC(=O)C4[C@H]2C(=O)N(CCO)[C@@H]3C1=O (stereo partly specified)	1.11

Measured values drawn from PubChem BioAssay for this set.
